- Tested on: AURKC
- measurement_conditions: concentration: 1 μM, replicates: in singlicate; n = 1
Please respond with reported %Inh for every item in the list.
Respond with the bare value in %.

Give its %Inh value. Item: CNc1nccc(-c2c(-c3ccc(F)cc3)ncn2C2CCN(C)CC2)n1
0

Give its %Inh value. Item: COC(=O)c1cccc(NC(=O)NCCNc2ccnc(Nc3ccc(F)cc3)n2)c1
32

Give its %Inh value. Item: CS(=O)(=O)CCNCc1ccc(-c2ccc3ncnc(Nc4ccc(OCc5ccccc5)c(Cl)c4)c3c2)o1.Cl
2

Give its %Inh value. Item: Cl.Cn1ccc(-c2cccc(Nc3ccnc4cc(-c5nccs5)ccc34)c2)n1
0

----------
- Test system: LOK;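 also: kd values determined as follow-up on hits from a single-replicate KINOMEscan panel screen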
- Construct: gene STK10
measured_quantity: Kd (nM)
Respond with the bare value in nM.

Give its Kd value. Item: COc1cc2ncnc(Nc3ccc(OCc4ccccc4Br)c(Cl)c3)c2cc1OC.Cl
2000

----------
- Test system: MAP3K3
- measurement_conditions: concentration: 1 μM, replicates: in singlicate; n = 1
Please respond with reported %Inh for every item in the list.
Respond with the bare value in %.

Give its %Inh value. Item: Fc1cccc(COc2ccc(Nc3ncnc4sc(-c5ccc[nH]5)cc34)cc2Cl)c1
0

Give its %Inh value. Item: Cl.c1ccc(Cn2ccc3cc(Nc4ncnc5ccccc45)ccc32)cc1
0

Give its %Inh value. Item: O=C(CCO)NCCn1ccc2ncnc(Nc3ccc(Oc4cccc(C(F)(F)F)c4)c(Cl)c3)c21
0

Give its %Inh value. Item: Nc1nc(-c2ccccn2)c(-c2ccnc3ccccc23)s1
0

Give its %Inh value. Item: Fc1ccc(-c2ncn(CCCNCc3ccccc3)c2-c2ccncc2)cc1
16

Give its %Inh value. Item: COC(=O)c1c(-c2ccccc2)c2cc(Cl)ccc2c(=O)n1Cc1ccc(S(C)(=O)=O)cc1
26

Give its %Inh value. Item: Nc1n[nH]c2nnc(-c3ccccc3)cc12
0

Give its %Inh value. Item: O=c1cc(N2CCOCC2)nc2n(Cc3cccc(Cl)c3)ccn12
0

Give its %Inh value. Item: Cl.Cl.c1ccc(-c2cc3ccncc3cc2OC2CCNCC2)cc1
0

Give its %Inh value. Item: COc1ccc(NC(=O)c2ccc(-c3cc(-c4nnc(C)o4)ccc3C)cc2)cc1
0

Give its %Inh value. Item: Cc1cc(N2CCC(NS(=O)(=O)c3ccc(F)cc3)CC2)nc(Nc2cccc(C#N)c2)n1.O=C(O)C(F)(F)F
0

Give its %Inh value. Item: N#Cc1ccc(Oc2ccc(Nc3ncnc4cc[nH]c34)cc2Cl)cc1
27

Give its %Inh value. Item: CCn1c(-c2ccncc2)nc2cnccc21
10

Give its %Inh value. Item: Clc1cccc(-c2nc(Nc3ccncc3)c3ccccc3n2)c1
20

Give its %Inh value. Item: Clc1ccc(-c2cc(-c3c[nH]nc3-c3ccccn3)ccn2)cc1
0

Give its %Inh value. Item: CC(C)(C)c1ccc(-n2cnc3c(N)ncnc32)cc1
0

Give its %Inh value. Item: FC(F)(F)c1ccc(-c2cc(-c3c[nH]nc3-c3ccccn3)ccn2)cc1
0

Give its %Inh value. Item: COC(=O)c1cccc(NC(=O)NCCNc2ccnc(Nc3ccc(F)cc3)n2)c1
0

Give its %Inh value. Item: CC(=O)Nc1n[nH]c2ncc(-c3ccccc3)cc12
37

----------
- System: ERK4
- Construct: gene MAPK4
- measurement_conditions: concentration: 1 μM, replicates: in singlicate; n = 1
Please respond with reported %Inh for every item in the list.
Respond with the bare value in %.

Give its %Inh value. Item: c1ccc(-c2ccc3c(-c4ccnc(Nc5ccc6c(c5)OCCO6)n4)cnn3n2)cc1 [GW818941]
0

Give its %Inh value. Item: Nc1nc(-c2ccc3c(N)n[nH]c3c2)cc(N2CCC[C@@H](C(=O)Nc3ccccc3)C2)n1.O=C(O)C(F)(F)F.O=C(O)C(F)(F)F [GSK2288359]
16

Give its %Inh value. Item: CS(=O)(=O)CCNCc1ccc(-c2ccc3ncnc(Nc4ccc(OCc5ccccc5)c(Cl)c4)c3c2)o1.Cl [GW574783]
0

Give its %Inh value. Item: Fc1ccc(Nc2nccc(-c3c(-c4ccc(Cl)cc4)nn4ncccc34)n2)cc1F [GW829058]
23

Give its %Inh value. Item: CNc1nccc(-c2c(-c3ccc(F)cc3)ncn2CCCN2CCOCC2)n1 [SB-222516]
2

Give its %Inh value. Item: O=C(c1ccc(-c2cc(-c3c[nH]nc3-c3ccccn3)ccn2)cc1)N1CCCC1 [GW792479]
0

Give its %Inh value. Item: C[C@@H]1CCN(C(=O)CO)C[C@@H]1N(C)c1ncnc2[nH]ccc12
19

Give its %Inh value. Item: CNc1nccc(-c2c(-c3ccc(F)cc3)ncn2C2CCN(C)CC2)n1 [SB-222903]
0

// data source = paper PMC5540273
